Each recorded value in this set is attributed to patent US9708336B2.

molecular target: UniProt C7C422; test: biochemical; format: biochemical; conditions: fluorescence assay with CCF2-FA substrate; read-out: NDM-1 IC50
Sequence (C7C422 whole entry, looked up, species assumed): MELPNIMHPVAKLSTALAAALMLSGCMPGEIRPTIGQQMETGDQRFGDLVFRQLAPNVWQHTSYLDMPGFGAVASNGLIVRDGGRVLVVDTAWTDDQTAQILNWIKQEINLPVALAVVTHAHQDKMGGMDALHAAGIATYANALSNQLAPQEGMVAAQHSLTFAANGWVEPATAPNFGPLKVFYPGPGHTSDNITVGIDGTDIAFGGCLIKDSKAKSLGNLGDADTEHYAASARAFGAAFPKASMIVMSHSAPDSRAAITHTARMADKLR
pIC50: −log10 of the molar value.
pIC50 below 8 gives Criterion not met; pIC50 at or above it gives Criterion met.

# Compound, Target Or Test System, Discrete Label
measured = [
    ("CC(c1ccc(-c2cccc(S(N)(=O)=O)c2-c2nn[nH]n2)cc1)N1CCOCC1 (stereo not drawn)", "UniProt C7C422", "Criterion met"),
    ("NS(=O)(=O)c1cccc(CCc2cccnc2)c1-c1nnn[nH]1", "UniProt C7C422", "Criterion not met"),
    ("N=C(N)N[C@H]1CC[C@H](c2ccc(C(F)(F)F)c(S(N)(=O)=O)c2-c2nnn[nH]2)CC1", "UniProt C7C422", "Criterion not met"),
    ("NS(=O)(=O)c1cccc(-c2ccc(-n3nccn3)cc2)c1-c1nn[nH]n1", "UniProt C7C422", "Criterion met"),
    ("NS(=O)(=O)c1cccc(-c2cccc(-n3nccn3)c2)c1-c1nn[nH]n1", "UniProt C7C422", "Criterion met"),
]

Please find the next compound below.
Assess whether reported pIC50 for "Cc1ccncc1-c1ccc(C(F)(F)F)c(S(N)(=O)=O)c1-c1nnn[nH]1" sits at 8 or higher. Criterion met

* * *

molecular target: VIM-1 (Pseudomonas aeruginosa (strain ATCC 15692 / DSM 22644 / CIP 104116 / JCM 14847 / LMG 12228 / 1C / PRS 101 / PAO1), UniProt A0A0F7KYQ8); experiment: Enzyme activity: determination of IC50, fluorescence assay with CCF2-FA substrate (VIM-1); format: biochemical; conditions: VIM-1 IC50, fluorescence assay with CCF2-FA substrate
Item-by-item account of IC50
Kindly provide the numeric value in nM only, without the unit symbol.

# Compound, IC50 / nM
measured = [
    ("Nc1nnc(C2CCN(c3ccc(C(F)(F)F)c(S(N)(=O)=O)c3-c3nnn[nH]3)CC2)s1", 27.7),
    ("NS(=O)(=O)c1c(C(F)(F)F)ccc(-c2ccc(C3CN(CCC4CCNCC4)C3)cc2)c1-c1nnn[nH]1", 13.2),
    ("NS(=O)(=O)c1c(C(F)(F)F)ccc(N2C[C@@H](O)[C@H](O)C2)c1-c1nnn[nH]1", 339),
    ("NS(=O)(=O)c1nccc(N2CCC(Cc3ccncc3)CC2)c1-c1nnn[nH]1", 96.9),
    ("NS(=O)(=O)c1cccc(CC2CCCCC2)c1-c1nnn[nH]1", 252),
]

I'd like to know its IC50. The compound in question is "NS(=O)(=O)c1cccc(-c2cccc3c2CNC3=O)c1-c1nnn[nH]1" 4.99

Now the compound "Cc1ccncc1-c1ccc(C(F)(F)F)c(S(N)(=O)=O)c1-c1nnn[nH]1" 0.866

Do the same for "Nc1ncnc2cc(-c3ccc(C(F)(F)F)c(S(N)(=O)=O)c3-c3nnn[nH]3)ccc12" please 0.262

Then "NS(=O)(=O)c1cccc(-c2cnn3ccccc23)c1-c1nn[nH]n1" ? 29.4

Same read-out for "NS(=O)(=O)c1cccc(-c2cccc(CO)c2)c1-c1nnn[nH]1" ? 261

Likewise for "Nc1nnc(C2CCN(c3ccnc(S(N)(=O)=O)c3-c3nnn[nH]3)CC2)s1" ? 96.7

Ok, now "CCOC(=O)N1CCC(c2cccc(S(N)(=O)=O)c2-c2nn[nH]n2)CC1" 85.6

Param item: NS(=O)(=O)c1cccc(C2CCn3cncc3C2)c1-c1nn[nH]n1 (centres unmarked) 65.5

Now the compound "NS(=O)(=O)c1c(C(F)(F)F)ccc(N2C[C@@H](O)[C@@H](O)C2)c1-c1nnn[nH]1" 353

Try the compound "Cc1cc2nccn2cc1-c1cccc(S(N)(=O)=O)c1-c1nnn[nH]1" 54.4

Param item: "N=C(N)N1CCC2(CCC(c3ccc(C(F)(F)F)c(S(N)(=O)=O)c3-c3nnn[nH]3)CC2)CC1" 1.36

What do you get for "NS(=O)(=O)c1cccc(-c2ccc3[nH]nnc3c2)c1-c1nn[nH]n1" ? 475
